- targetSystem: Probable nicotinate-nucleotide adenylyltransferase (Bacillus anthracis (strain CDC 684 / NRRL 3495), UniProt C3L5T6)
- Sequence (C3L5T6 whole entry): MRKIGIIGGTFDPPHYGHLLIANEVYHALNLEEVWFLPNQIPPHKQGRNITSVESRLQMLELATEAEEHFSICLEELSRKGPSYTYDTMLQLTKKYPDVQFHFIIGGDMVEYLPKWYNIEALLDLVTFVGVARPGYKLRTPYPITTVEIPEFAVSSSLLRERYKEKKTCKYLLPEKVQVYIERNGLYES
- measurementNotes: NaMNAT HPLC Enzyme Assay
- assaySetup: pH 7.5; 0 °C
valueType: IC50 (µM)
Expressed in µM, but write only the number.

These solved cases illustrate the format of a correct answer.
structureNotation | IC50 (µM)
O=C(Nc1ccc([N+](=O)[O-])cc1)Nc1ccc(S(=O)(=O)Nc2ccc(Cl)c(Cl)c2)cc1 | 2
O=C(Nc1ccc(NS(=O)(=O)c2ccc(F)cc2)cc1)Nc1ccc([N+](=O)[O-])cc1 | 370

Lookup: Give a short answer stating reported IC50 for O=C(Nc1ccc(NS(=O)(=O)c2ccc(Cl)c(Cl)c2)cc1)Nc1cccc([N+](=O)[O-])c1 .
Found: 382

Lookup: Give a short answer stating reported IC50 for O=C(Nc1ccc(NS(=O)(=O)c2ccc(Cl)c(Cl)c2)cc1)Nc1ccc([N+](=O)[O-])cc1 .
Found: 7.3

----------
Reported IC50, NH(3)-dependent NAD(+) synthetase (Bacillus anthracis).

These solved cases illustrate the format of a correct answer.
structureNotation | IC50
Nc1ccc(S(=O)(=O)Nc2ccc(NC(=O)Nc3ccccc3[N+](=O)[O-])cc2)cc1 | 17.1 µM
O=C(Nc1ccc(NS(=O)(=O)c2ccc(C(F)(F)F)cc2)cc1)Nc1cccc([N+](=O)[O-])c1 | 143 µM
O=C(Nc1ccc(NS(=O)(=O)c2ccc(Cl)c(Cl)c2)cc1)Nc1ccc([N+](=O)[O-])cc1 | 32.7 µM
O=C(Nc1ccc([N+](=O)[O-])cc1)Nc1ccc(S(=O)(=O)Nc2ccc(Cl)c(Cl)c2)cc1 | 6.4 µM
O=C(Nc1ccc(NS(=O)(=O)c2ccc(Cl)c(Cl)c2)cc1)Nc1ccccc1[N+](=O)[O-] | 443 µM

Would you kindly look at the next entry?
Lookup: Fill in IC50 for O=C(Nc1ccc(NS(=O)(=O)c2ccc(Cl)c(Cl)c2)cc1)Nc1cccc([N+](=O)[O-])c1 tested with NH(3)-dependent NAD(+) synthetase (Bacillus anthracis).
Sequence (Q81RP3 whole entry): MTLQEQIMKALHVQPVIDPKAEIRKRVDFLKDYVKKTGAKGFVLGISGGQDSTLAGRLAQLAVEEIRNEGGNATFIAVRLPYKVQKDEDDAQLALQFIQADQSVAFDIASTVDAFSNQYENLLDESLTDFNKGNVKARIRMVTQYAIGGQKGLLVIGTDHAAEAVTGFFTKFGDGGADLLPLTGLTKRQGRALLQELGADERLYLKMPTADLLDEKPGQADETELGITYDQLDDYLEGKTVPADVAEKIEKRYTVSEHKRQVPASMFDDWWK
Found: 95.5 µM
